Recorded inhibition at 10 mg/kg for the following compounds
# System: cholesterol absorption from the intestine
# assay.text: In Vivo Assay of Hypolipidemic Agents using the Rat Cholesterol Absorption Model
# Parameters: species or system Female Sprague-Dawley rats
# test.conditions: po, Table 1, footnote 1, perorally, 10 mg/kg, 3H levels in serum three hours after 3H-cholesterol

- compound: "O=C1[C@H](CC[C@H](O)c2ccc(F)cc2)[C@@H](c2ccc(-c3ccccc3)cc2)N1c1ccc(F)cc1 [Example 3]"
  inhibition at 10 mg/kg: "15%"
- compound: "COc1ccc(-c2ccc([C@@H]3[C@@H](CC[C@H](O)c4ccc(F)cc4)C(=O)N3c3ccc(F)cc3)cc2)cc1 [Example 5]"
  inhibition at 10 mg/kg: "26%"
- compound: "CC(=O)Nc1cccc(-c2ccc([C@@H]3[C@@H](CC[C@H](O)c4ccc(F)cc4)C(=O)N3c3ccc(F)cc3)cc2)c1 [Example 26]"
  inhibition at 10 mg/kg: "76%"
- compound: "O=C1[C@H](CC[C@H](O)c2ccc(F)cc2)[C@@H](c2ccc(-c3cccc([N+](=O)[O-])c3)cc2)N1c1ccc(F)cc1 [Example 23]"
  inhibition at 10 mg/kg: "54%"
